# Assay System: T1, ErbB-4 receptor-Ig fusion (human, UniProt Q15303 26-651)
# T1 construct: extracellular domain;range 224-C-terminus; also called ErbB-4-Ig; not shown: human IgG heavy chain constant region from His224 (hinge) on
# T1 sequence: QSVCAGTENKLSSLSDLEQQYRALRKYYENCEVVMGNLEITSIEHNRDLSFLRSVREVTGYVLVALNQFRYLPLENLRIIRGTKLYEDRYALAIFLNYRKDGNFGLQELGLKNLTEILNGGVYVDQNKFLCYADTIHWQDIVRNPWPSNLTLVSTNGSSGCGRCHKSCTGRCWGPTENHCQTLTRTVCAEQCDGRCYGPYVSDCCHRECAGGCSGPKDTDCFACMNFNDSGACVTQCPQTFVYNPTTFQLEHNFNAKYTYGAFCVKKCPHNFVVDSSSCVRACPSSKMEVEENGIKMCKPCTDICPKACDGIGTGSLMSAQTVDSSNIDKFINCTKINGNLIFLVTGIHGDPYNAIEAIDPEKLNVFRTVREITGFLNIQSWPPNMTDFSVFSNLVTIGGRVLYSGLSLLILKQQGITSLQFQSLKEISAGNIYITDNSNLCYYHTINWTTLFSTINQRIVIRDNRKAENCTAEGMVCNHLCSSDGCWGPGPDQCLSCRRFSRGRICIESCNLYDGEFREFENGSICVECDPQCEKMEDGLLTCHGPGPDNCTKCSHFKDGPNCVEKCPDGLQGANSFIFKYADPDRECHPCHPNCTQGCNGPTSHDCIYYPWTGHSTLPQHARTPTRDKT
# Assay Method Text: displacement of 125I-HRG-β1 177-244 from plate-bound ErbB-4-Ig
pEC50: −log10 of the molar value.
Endpoint Label: pEC50

binder="TH-WT: thioredoxin fused at its C-terminus to wild-type HRG-β1 146-244 (ligand, also called Trx-wild-type HRG-β1; not shown: thioredoxin (Trx) from pTrxFus) DDDDKAYVSSESPIRISVSTEGANTSSSTSTSTTGTSHLVKCAEKEKTFCVNGGECFMVKDLSNPSRYLCKCPNEFTGDRCQNYVMASFYKHLGIEFMEAEELY" assay_result=7.81
binder="recombinantly produced HRG-β1 177-244 (soluble) (ligand) SHLVKCAEKEKTFCVNGGECFMVKDLSNPSRYLCKCPNEFTGDRCQNYVMASFYKHLGIEFMEAEELY" assay_result=7.83
